Tested on: Klebsiella aerogenes DSM 30053
Experiment: fold change of Cadaverine concentration vs plate DMSO controls (fold change (ratio)); higher = more amine produced, active = hit call of the paper (significant change in both replicates, either direction)
Details: incubation time: 27 h, anaerobic, 37 °C
Structures can show the parent of a compound that is named as a salt.

MOLECULE | SYSTEM TESTED | fold change of Cadaverine concentration
CC(C)(C)NCC(O)c1cc(O)cc(O)c1 (centres undefined) [Terbutaline hemisulfate] (20 µM) | Klebsiella aerogenes DSM 30053 | 0.993
CC(C(=O)O)c1cccc(C(=O)c2ccccc2)c1 (centres undefined) [Ketoprofen] (20 µM) | Klebsiella aerogenes DSM 30053 | 0.995
CN(CCCN1c2ccccc2CCc2ccccc21)CC(=O)c1ccc(Cl)cc1 [Lofepramine] (20 µM) | Klebsiella aerogenes DSM 30053 | 0.999
C[C@H](CC[C@@H](O[C@@H]1O[C@H](CO[C@@H]2O[C@H](CO)[C@@H](O)[C@H](O)[C@H]2O)[C@@H](O)[C@H](O)[C@H]1O[C@@H]1O[C@H](CO)[C@@H](O)[C@H](O)[C@H]1O)C(C)(C)O)[C@H]1CC[C@@]2(C)[C@@H]3CC=C4[C@@H](CC[C@H](O[C@@H]5O[C@H](CO[C@@H]6O[C@H](CO)[C@@H](O)[C@H](O)[C@H]6O)[C@@H](O)[C@H](O)[C@H]5O)C4(C)C)[C@]3(C)[C@H](O)C[C@]12C [Mogroside V] (50 µM) | Klebsiella aerogenes DSM 30053 | 1.02
CN(C)CCc1c[nH]c2ccc(Cn3cncn3)cc12 [Rizatriptan benzoate] (20 µM) | Klebsiella aerogenes DSM 30053 | 1.01
CCCCOC(=O)c1ccc(N)cc1 [Butamben] (20 µM) | Klebsiella aerogenes DSM 30053 | 0.999
O=C(CCCl)NCc1ccccc1 [Beclamide] (20 µM) | Klebsiella aerogenes DSM 30053 | 0.996
CCOc1ccccc1C(N)=O [Ethenzamide] (20 µM) | Klebsiella aerogenes DSM 30053 | 0.978
CN(C/C=C/c1ccccc1)Cc1cccc2ccccc12 [Naftifine hydrochloride] (20 µM) | Klebsiella aerogenes DSM 30053 | 0.99

---

System: Clostridium sporogenes DSM 1664
Assay: growth (OD595) fold change vs plate DMSO controls (fold change (ratio)); higher = more growth
Details: incubation time: 27 h, anaerobic, 37 °C
Where a name gives a salt, the structure may show the parent alone.

COMPOUND | growth
CNNCc1ccc(C(=O)NC(C)C)cc1 [Procarbazine hydrochloride] (20 µM) | 1.03
N[C@@H]1CCCCN(c2c(F)cc3c(=O)c(C(=O)O)cn(C4CC4)c3c2Cl)C1 [Besifloxacin hydrochloride] (20 µM) | 0.0111
CCCCc1oc2ccc(NS(C)(=O)=O)cc2c1C(=O)c1ccc(OCCCN(CCCC)CCCC)cc1 [Dronedarone hydrochloride] (20 µM) | 0.948
CCN(CC)CCNC(=O)c1cc(Cl)c(N)cc1OC [Metoclopramide monohydrochloride] (20 µM) | 1.08
C#Cc1cccc(Nc2ncnc3cc(OCCOC)c(OCCOC)cc23)c1 [Erlotinib] (20 µM) | 0.903
O=C1Nc2ccc(Cl)cc2[C@@](C#CC2CC2)(C(F)(F)F)O1 [Efavirenz] (20 µM) | 1.25
CO[C@H]1/C=C/O[C@@]2(C)Oc3c(C)c(O)c4c(O)c(c5c(nc6cc(C)ccn65)c4c3C2=O)NC(=O)/C(C)=C\C=C\[C@H](C)[C@H](O)[C@@H](C)[C@@H](O)[C@@H](C)[C@H](OC(C)=O)[C@@H]1C [Rifaximin] (20 µM) | 0.00823
Cc1ccc(Cl)c(Nc2ccccc2C(=O)O)c1Cl [Meclofenamic acid sodium salt monohydrate] (20 µM) | 1.01
O=C(O)c1cc(=O)[nH]c(=O)[nH]1 [Orotic acid] (20 µM) | 1.11
CCOC(=O)NNc1nncc2ccccc12 [Todralazine hydrochloride] (20 µM) | 0.521
CNC(=C[N+](=O)[O-])NCCSCc1csc(CN(C)C)n1 [Nizatidine] (20 µM) | 1.13
CCCCC1(COC(=O)CCC(=O)O)C(=O)N(c2ccccc2)N(c2ccccc2)C1=O [Suxibuzone] (20 µM) | 0.913
CC(C)(C)c1ccc(C(O)CCCN2CCC(C(O)(c3ccccc3)c3ccccc3)CC2)cc1 (stereo not given) [Terfenadine] (20 µM) | 1.21
CCOc1ccccc1C(N)=O [Ethenzamide] (20 µM) | 1.07
CC1(C)S[C@@H]2[C@H](NC(=O)[C@H](N)c3ccccc3)C(=O)N2[C@H]1C(=O)OC1OC(=O)c2ccccc21 (stereo not given in full) [Talampicillin hydrochloride] (20 µM) | 0
